Biological target: Tyrosyl-tRNA synthetase, putative (Trypanosoma cruzi (strain CL Brener))
Sequence (whole entry): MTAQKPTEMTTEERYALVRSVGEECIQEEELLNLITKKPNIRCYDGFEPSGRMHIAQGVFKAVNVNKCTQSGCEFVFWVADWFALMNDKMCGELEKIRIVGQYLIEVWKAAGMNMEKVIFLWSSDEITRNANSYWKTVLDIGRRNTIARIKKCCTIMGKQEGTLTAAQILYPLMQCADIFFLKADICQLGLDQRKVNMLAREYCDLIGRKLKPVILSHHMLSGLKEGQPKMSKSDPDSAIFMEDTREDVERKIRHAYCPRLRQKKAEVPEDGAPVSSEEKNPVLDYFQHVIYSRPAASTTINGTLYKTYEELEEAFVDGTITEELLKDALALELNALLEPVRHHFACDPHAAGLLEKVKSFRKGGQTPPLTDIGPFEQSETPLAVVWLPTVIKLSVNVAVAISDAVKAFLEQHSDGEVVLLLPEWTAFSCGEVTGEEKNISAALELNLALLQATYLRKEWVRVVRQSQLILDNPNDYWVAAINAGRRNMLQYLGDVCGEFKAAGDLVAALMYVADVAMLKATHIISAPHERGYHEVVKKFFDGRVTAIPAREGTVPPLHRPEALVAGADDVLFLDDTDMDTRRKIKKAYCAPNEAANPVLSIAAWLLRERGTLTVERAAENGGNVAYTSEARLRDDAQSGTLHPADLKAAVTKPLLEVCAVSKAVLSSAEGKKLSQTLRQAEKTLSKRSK
Assay: Trypanosoma cruzi tyrosyl tRNA synthetase (TcYRS) SOP
Type: functional
Set-up: scale not given: direction of the effect not stated beside the values
Settings: 30 µM
I'd be grateful if you could share measured Percent Effect for these entries.
Answers are plain numbers, in %.

Exam item: Report Percent Effect for `O=C(CCn1cncn1)NC1(c2cccc(Br)c2)CCC1` tested on Tyrosyl-tRNA synthetase, putative (Trypanosoma cruzi (strain CL Brener)).
Marked response: 16.1

Exam item: Entry to check: `CC(=O)N1CCN(C(=O)c2cnn(-c3ccccc3Cl)c2)CC1`
Marked response: 18.5

Exam item: Another: Cc1nc(Nc2nnc(C)s2)cc(C2CCCN2C)n1 (stereo not given)
Marked response: 3.85

Give Percent Effect for all compounds that follow.
1. CNc1cccc(C2CCCN(C(=O)c3ccncc3)C2)n1 (stereo not given)
2. CCCS(=O)(=O)NCC1CCOc2ccccc2C1 (stereo not given)
3. COCc1n[nH]/c(=N/C(=O)COc2cnc(C)cc2O)s1
4. Cc1cccc(C2(CNC(=O)CCNS(C)(=O)=O)CCCC2)c1
5. Cc1cnn(CCNCc2ccc(OCC(N)=O)cc2)c1
6. CCOCC1CN(S(C)(=O)=O)Cc2ncn(CC3CC3)c21 (stereo not given)

Marked response:
[11.7, 6.17, 5.2, 8.86, 8.64, 13.6]

Hi! Can you tell me Percent Effect for each of these compounds?
1. Cc1cc(N2CCN(Cc3ccc(C)o3)CC2)cc(C)n1
2. CCc1ccccc1-n1nnc(C(=O)O)c1-c1ccccn1
3. O=C(C1=CCCC1)N1CCO[C@H]2[C@@H](Oc3ccccn3)CC[C@@H]21
4. Cc1nn(C)cc1C(=O)Nc1cccc(CN2CCC(CO)CC2)c1
5. Cc1cccc(NC2CCN(C(=O)Nc3cccc4[nH]ccc34)CC2)n1

Marked response:
16.1
13
16.7
15.6
16.5

Lab note: each compound below needs its Percent Effect filled in.
1. Cc1nc(CNC(C)c2ccc(OCC(=O)NC3CC3)cc2)cs1 (stereo not given)
2. COCC(=O)N1Cc2cn(C)nc2C(COc2cccnc2)C1 (stereo not given)
3. Cc1nc(O)cc(C2CCN(Cc3cccc(F)c3F)C2)n1 (stereo not given)

Marked response:
1: -48.1; 2: 6.41; 3: 16.9

Consider the following items and state reported Percent Effect for each.
1. c1cnnc(N2CCCC2CNc2nc3ccccc3o2)c1 (stereo not given)
2. O=C(c1cncc(N2CCC(O)(CO)CC2)n1)N1CCCC1
3. NC(=O)N1CC[C@H](O)[C@@H]1Cc1cccnc1
4. CC1(C(=O)N2CCOCC2)CN(Cc2ccccc2F)CCO1 (stereo not given)
5. O=C(NCCCNC(=O)c1cccc(O)c1)Nc1ccc(F)cc1F

Marked response:
1: 20.2; 2: 18.5; 3: 7.69; 4: 8.97; 5: 15.6
